Tested on: NCI-H226 cells
Assay: Viability assay in NCI-H226 (Yap-dependent) cells, CyQUANT
Assay type: cell-based
Conditions: Homo sapiens
pIC50: −log10 of the molar value.
So I've got a bunch of compounds here, and I need their pIC50 values.

Query: Recorded pIC50 of COC(=O)c1ccc2c(c1)c1nn(C)cc1n2-c1ccc(C(F)(F)F)cc1 [Example 16] , please.
Reply: 7.00 to 9.00

Query: Recorded pIC50 of C=CC(=O)NCc1ccc2c(c1)c1cn(C)nc1n2-c1ccc(C(F)(F)F)cc1 [Example 21] , please.
Reply: 5.00 to 6.00

Query: Recorded pIC50 of Cn1cc2c3cc(C(=O)O)ccc3n(Cc3ccc(C(F)(F)F)cc3)c2n1 [Example 5] , please.
Reply: 7.00 to 9.00

Query: Recorded pIC50 of Cc1ccc(-n2c3ccc(C(=O)O)cc3c3cn(C)nc32)cc1 [Example 9] , please.
Reply: 7.00 to 9.00

Query: Recorded pIC50 of Cn1cc2c3cc(C(=O)O)ccc3n(-c3ccc(C4CCCC4)cc3)c2n1 [Example 22] , please.
Reply: 6.00 to 7.00

###

So I've got a bunch of molecules here, and I need their melting point values.

Query: Recorded melting point of Cn1cc2c3cc(C(=O)NC4CC4)ccc3n(-c3ccc(C(F)(F)F)nc3)c2n1 [Example 27] , please.
Reply: 300 °C

Query: Recorded melting point of Cn1cc2c(n1)c1cc(C#N)ccc1n2-c1ccc(C(F)(F)F)cc1 [Example 19] , please.
Reply: 208 to 210 °C

Query: Recorded melting point of Cc1nc2c(s1)c1cc(C(=O)O)ccc1n2-c1ccc(C(F)(F)F)cc1 [Example 25] , please.
Reply: 169 to 171 °C

Query: Recorded melting point of COC(=O)c1ccc2c(c1)c1nn(C)cc1n2-c1ccc(C(F)(F)F)cc1 [Example 16] , please.
Reply: 111 to 112 °C

Query: Recorded melting point of Cn1cc2c3cc(CNC(=O)CCl)ccc3n(-c3ccc(C(F)(F)F)cc3)c2n1 [Example 24] , please.
Reply: 221 to 222 °C

Query: Recorded melting point of Cn1cc2c3cc(C(=O)NCc4ccncc4)ccc3n(-c3ccc(C(F)(F)F)cc3)c2n1 [Example 28] , please.
Reply: 181 to 185 °C

Query: Recorded melting point of C=CC(=O)NCc1ccc2c(c1)c1cn(C)nc1n2-c1ccc(C(F)(F)F)cc1 [Example 21] , please.
Reply: 185 to 187 °C

Query: Recorded melting point of CCOc1ccc(-n2c3ccc(C(=O)O)cc3c3cn(C)nc32)cc1 [Example 15] , please.
Reply: 179 to 181 °C

Query: Recorded melting point of C=CC(=O)Nc1ccc2c(c1)c1cn(C)nc1n2-c1ccc(C(F)(F)F)cc1 [Example 20] , please.
Reply: 223 to 224 °C

Query: Recorded melting point of Cn1cc2c3cc(C(=O)O[C@@H]4O[C@H](C(=O)O)[C@@H](O)[C@H](O)[C@H]4O)ccc3n(-c3ccc(C(F)(F)F)cc3)c2n1 [Example 30] , please.
Reply: 110 to 111 °C

###

So I've got a bunch of compounds here, and I need their IC50 values.
Test system: NCI-H226 cells
Assay: Viability assay in NCI-H226 (Yap-dependent) cells, CyQUANT
Assay type: cell-based
Conditions: Homo sapiens

Query: Recorded IC50 of COCC(NC(=O)c1ccc2c(c1)c1cn(C)nc1n2-c1ccc(C(F)(F)F)cc1)c1cnn(C)c1 (stereo not drawn) [Example B68] , please.
Reply: 100 to 1000 nM

Query: Recorded IC50 of Cn1cc2c3cc(C(=O)NC4CC4)ccc3n(-c3ccc(C(F)(F)F)nc3)c2n1 [Example 27] , please.
Reply: 1 to 100 nM

Query: Recorded IC50 of Cn1cc2c3cc(C(=O)NCc4n[nH]cc4C4CC4)ccc3n(-c3ccc(C(F)(F)F)cc3)c2n1 [Example B22] , please.
Reply: 1 to 100 nM

Query: Recorded IC50 of CNC(=O)c1ccc2c(c1)c1nn(C)cc1n2-c1ccc(C(F)(F)F)cc1 [Example 17] , please.
Reply: 100 to 1000 nM

Query: Recorded IC50 of CCCn1ncc(CNC(=O)c2ccc3c(c2)c2cn(C)nc2n3-c2ccc(C(F)(F)F)cc2)c1C [B123^] , please.
Reply: 100 to 1000 nM

Query: Recorded IC50 of Cn1cc2c(n1)c1cc(S(N)(=O)=O)ccc1n2-c1ccc(C(F)(F)F)cc1 [Example 34] , please.
Reply: > 10000 nM

Query: Recorded IC50 of CN(C)S(=N)(=O)c1ccc2c(c1)c1nn(C)cc1n2-c1ccc(C(F)(F)F)cc1 (stereo not drawn) [Example 36] , please.
Reply: 1 to 100 nM

Query: Recorded IC50 of COc1ccc(-n2c3ccc(C(=O)O)cc3c3cn(C)nc32)cc1 [Example 14] , please.
Reply: 100 to 1000 nM

Query: Recorded IC50 of Cn1cc2c(n1)c1cc(S(C)(=N)=O)ccc1n2-c1ccc(C(F)(F)F)cc1 (stereo not drawn) [Example 35] , please.
Reply: 100 to 1000 nM

Query: Recorded IC50 of CSc1ccc2c(c1)c1cn(C)nc1n2-c1ccc(C)cc1 [Example 31] , please.
Reply: > 10000 nM

Query: Recorded IC50 of CCOc1ccc(-n2c3ccc(C(=O)O)cc3c3cn(C)nc32)cc1 [Example 15] , please.
Reply: 100 to 1000 nM

Query: Recorded IC50 of Cc1nc2c(s1)c1cc(C(=O)O)ccc1n2-c1ccc(C(F)(F)F)cc1 [Example 25] , please.
Reply: 100 to 1000 nM

Query: Recorded IC50 of C=CC(=O)Nc1ccc2c(c1)c1cn(C)nc1n2-c1ccc(C(F)(F)F)cc1 [Example 20] , please.
Reply: 100 to 1000 nM

Query: Recorded IC50 of CCn1cc(C(O)CNC(=O)c2ccc3c(c2)c2cn(C)nc2n3-c2ccc(C(F)(F)F)cc2)cn1 (stereo not drawn) [Example B36] , please.
Reply: 1 to 100 nM

Query: Recorded IC50 of Cn1cc2c3cc(C(=O)O)ccc3n(-c3ccc(F)cc3)c2n1 [Example 10] , please.
Reply: 100 to 1000 nM

Query: Recorded IC50 of Cn1cc2c3cc(C(=O)O)ccc3n(-c3cccc(C(F)(F)F)c3)c2n1 [Example 6] , please.
Reply: 100 to 1000 nM

Query: Recorded IC50 of COc1nc(C)cc(CNC(=O)c2ccc3c(c2)c2cn(C)nc2n3-c2ccc(C(F)(F)F)cc2)n1 [B126^] , please.
Reply: 1 to 100 nM

Query: Recorded IC50 of Cn1cc2c3cc(C(=O)O)ccc3n(Cc3ccccc3)c2n1 [Example 12] , please.
Reply: 100 to 1000 nM

Query: Recorded IC50 of Cn1cc2c3cc(C(=O)O[C@@H]4O[C@H](C(=O)O)[C@@H](O)[C@H](O)[C@H]4O)ccc3n(-c3ccc(C(F)(F)F)cc3)c2n1 [Example 30] , please.
Reply: 1000 to 10000 nM

Query: Recorded IC50 of Cn1cc2c3cc(C(=O)O)ccc3n(-c3ccc(OC(F)(F)F)cc3)c2n1 [Example 18] , please.
Reply: 100 to 1000 nM

Query: Recorded IC50 of Cn1cc2c3cc(CNC(=O)CCl)ccc3n(-c3ccc(C(F)(F)F)cc3)c2n1 [Example 24] , please.
Reply: 100 to 1000 nM

Query: Recorded IC50 of Cn1cc2c(n1)c1cc(F)ccc1n2-c1ccc(C(F)(F)F)cc1 [Example 26] , please.
Reply: > 10000 nM

Query: Recorded IC50 of Cn1cc2c(n1)c1cc([S+](C)[O-])ccc1n2-c1ccc(C(F)(F)F)cc1 (stereo not drawn) [Example 32] , please.
Reply: > 10000 nM

Query: Recorded IC50 of Cn1cc2c(n1)c1cc(C#N)ccc1n2-c1ccc(C(F)(F)F)cc1 [Example 19] , please.
Reply: > 10000 nM
